# Experimental System: PRKAA1 (human) (UniProt Q13131)
# Sequence (Q13131 whole entry, looked up): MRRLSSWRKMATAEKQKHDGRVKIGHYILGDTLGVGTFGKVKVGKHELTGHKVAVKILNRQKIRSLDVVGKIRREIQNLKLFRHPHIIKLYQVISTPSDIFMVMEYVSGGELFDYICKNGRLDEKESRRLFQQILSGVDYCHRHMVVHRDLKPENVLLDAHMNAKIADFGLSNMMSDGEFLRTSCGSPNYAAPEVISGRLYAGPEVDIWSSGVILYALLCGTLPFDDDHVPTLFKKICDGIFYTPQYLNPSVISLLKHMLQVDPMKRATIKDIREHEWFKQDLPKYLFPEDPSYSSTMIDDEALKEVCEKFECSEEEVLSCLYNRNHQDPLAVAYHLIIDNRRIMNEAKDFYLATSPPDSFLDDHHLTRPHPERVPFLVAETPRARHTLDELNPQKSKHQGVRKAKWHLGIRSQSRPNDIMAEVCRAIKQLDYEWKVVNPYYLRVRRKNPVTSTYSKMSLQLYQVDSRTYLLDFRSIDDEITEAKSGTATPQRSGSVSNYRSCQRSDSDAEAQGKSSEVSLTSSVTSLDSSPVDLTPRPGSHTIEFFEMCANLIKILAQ
# Assay Remarks: KINOMEscan competition binding
# Settings: compound 1.0 µM
Readout Name: kinase still bound, per cent of control (%)

>>> obs_value("CN(C)C/C=C/C(=O)Nc1cccc(C(=O)Nc2ccc(Nc3nccc(/C(C#N)=C4\\Nc5ccccc5S4)n3)cc2)c1")
100
>>> obs_value("CN(C)C/C=C/C(=O)Nc1cccc(C(=O)Nc2ccc(Nc3nccc(-c4cccnc4)n3)cc2)c1")
92
>>> obs_value("CN(C)C/C=C/C(=O)Nc1cccc(C(=O)Nc2ccc(Nc3nccc(-c4c(-c5ccccc5)nn5ccccc45)n3)cc2)c1")
100
>>> obs_value("Cc1cc(NC(=O)c2cccc(NC(=O)/C=C/CN(C)C)c2)ccc1Nc1nccc(-c2cccnc2)n1")
100
